# Tested on: K562 CRISPRi cells
# assay: Constant region variant library pooled growth screen, K562
# Type: cell-based, human
# measurement-setup: sgRNA constant region variants; relative to the original, un-modified constant region cr995 (= 1)
assay-readout: Mean relative activity

# molecule, meas-value
data = [
    ("cr690 (nucleic acid, listed as DNA, chemistry not fully specified) guide: GTTTAAGAGCTAAGCTGGAAACAGCAGAGCAAGTTTAAATAAGGCTAGTCCGTTATCAACTTGAAAAAGTGGCACCGAGTCGGTGCT", 1.011),
    ("cr446 (nucleic acid, listed as DNA, chemistry not fully specified) guide: GTTTAAGAGCTAAGCTGGAAACAGCATAGCAAGTTTAAATAAGGTTAATCCGTTATCATCTTGAAAAAGAGGGACCGAGTCGGTCCT", 0.9926),
    ("cr019 (nucleic acid, listed as DNA, chemistry not fully specified) guide: GTTTAACAGCTAAGCTGGAAACAGCATAGCAAGTTTAAATAAGGCTAGTCCGTTATCAACTTGAAAAAGTGGCACCGAGTCGGTGCT", 1.019),
    ("cr934 (nucleic acid, listed as DNA, chemistry not fully specified) guide: GTTTAAGAGCTAAGCTGGAAACAGCATAGCAAGTTTAAATAAGGCTTGTCCGTTACCAACTTGAAAAAGTGGCACCGATTCGGTGCT", 1.024),
]
